measurementProtocol: NCI Yeast Anticancer Drug Screen. Data for the bub3 strain (AID 167)
testConditions: S. cerevisiae bub3 mutant strain, at 50.0 µM, stronger effect = higher value
Compounds without any hit were thinned out: in the full panel of roughly 79,000, 15% have a hit.
Tick condition met if growth inhibition is 50% or greater. Tick condition not met if growth inhibition is less than 50%.

stdin: Is reported growth inhibition greater than or equal to 50% here: COP(=S)(OC)N(C)C(=O)Oc1cccc2ccccc12
stdout: condition met

stdin: What do you get for CN(C)CC(Cl)CCl (stereo not given) ?
stdout: condition not met

stdin: What do you get for O=C1C(F)=C(N2CC2)C(=O)C(F)=C1N1CC1 ?
stdout: condition met

stdin: What do you get for O=C1N[C@@H]2C(=C[C@H](O)[C@@H](O)[C@H]2O)c2cc3c(c(O)c21)OCO3 ?
stdout: condition not met

stdin: What do you get for CC1(C)N([O-])[N+](=O)C1(C)Br (stereo not given) ?
stdout: condition not met

stdin: What do you get for CC(=O)OC(C)(C)/C=C/C(=O)[C@](C)(O)[C@H]1[C@H](O)C[C@@]2(C)[C@@H]3CC=C4[C@@H](C[C@H](O)[C@H](O)C4(C)C)[C@]3(C)C(=O)C[C@]12C ?
stdout: condition met

stdin: What do you get for NP(N)(=O)Nc1ccccc1 ?
stdout: condition not met

stdin: What do you get for COc1cc[c]([Sb]([Br])([CH]=C(C)C)([CH]=C(C)C)[CH]=C(C)C)cc1 ?
stdout: condition met

stdin: What do you get for COc1ccc2c3c1OC1C(=O)C4CC5(c6c(O)ccc(O)c64)C(C2)N(C)CCC315 (stereo not given) ?
stdout: condition met

stdin: What do you get for c1cc[c]([Sn]([c]2ccccc2)([c]2ccccc2)[c]2ccccc2)cc1 ?
stdout: condition not met

----------
measurementProtocol: NCI Yeast Anticancer Drug Screen. Data for the sgs1 mgt1 strain (AID 161);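 also: 0% = growth of cultures given vehicle only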
testConditions: S. cerevisiae sgs1 mgt1 strain, at 50.0 µM (retest, dose inferred, filed as 5.0), stronger effect = higher value
Experimental: Growth inhibition of yeast strains with defined genetic alterations is measured as a screen for potential anti-cancer activity. Selected strains with alterations in DNA damage repair or cell cycle control were exposed to compounds and growth inhibition was measured relative to vehicle treated controls. The strain used in this assay is sgs1 mgt1
This is part of a sample that, as a whole, favours compounds with a hit. Of some 79,000 tested, about 15% had one in any assay.
attributeMeasured: growth inhibition (%)
Please respond with the number in % and leave the unit unwritten.

stdin: What value of growth inhibition has been recorded for this entry: CC(=O)OC1C(O)C(C)OC(OC2C(OC(=O)C3CCC4C(C3)OC3(CC(OC(=O)/C=C/c5ccccc5)C(C)CO3)C43CO3)OC(C)C(O)C2OC(C)=O)C1O (stereo not drawn)
stdout: 95

stdin: What do you get for COc1cccc(C(Cc2ccc(N3C(N)=NC(N)=NC3(C)C)cc2)C(=O)Nc2ccc(S(=O)(=O)F)cc2)c1 (stereo not drawn) ?
stdout: 99

stdin: What do you get for COc1cc2c(cc1OC)C13CCN4CC5=CCOC6CC(=O)N2C1C6C5CC43 (stereo not drawn) (tested in a mixture with another compound) ?
stdout: -8

stdin: What do you get for O=c1oc2ccccc2c(O)c1C1c2c(c3ccccc3oc2=O)Oc2c1c(=O)oc1ccccc21 ?
stdout: 97

stdin: What do you get for C[Si]1(C)CCCCC2(C1)C(=O)NC(=O)NC2=O ?
stdout: 58

stdin: What do you get for O=C(N/N=C/c1cc(Cl)cc(Cl)c1[O-])c1ccccc1O.O=C(N/N=C/c1cc(Cl)cc(Cl)c1[O-])c1ccccc1O.[Zn+2] ?
stdout: 72

stdin: What do you get for [Cl][Pt+2][Cl].[NH-]C(c1ccccc1)C([NH-])c1ccccc1 (stereo not drawn) ?
stdout: 9

stdin: What do you get for OC1CCCC[CH]1[Hg][Cl] (stereo not drawn) ?
stdout: 100

----------
measurementProtocol: NCI Yeast Anticancer Drug Screen. Data for the rad14 strain (AID 159);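 also: 0% = growth of vehicle-treated control cultures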
testConditions: S. cerevisiae rad14 strain growth inhibition; at 1.2 µM
Procedure: Growth inhibition of yeast strains with defined genetic alterations is measured as a screen for potential anti-cancer activity. Selected strains with alterations in DNA damage repair or cell cycle control were exposed to compounds and growth inhibition was measured relative to vehicle treated controls. The strain used in this assay is rad14
The panel holds about 79,000 compounds, 15% with a hit somewhere; the sample as a whole holds those more often. Active and inactive are the calls of the source. Rule as the data show it: active = growth inhibition above about 70%; inactive = the rest.
Choose the fitting class; nothing outside active, inactive is accepted.

stdin: // outcome(item) with item = COC(=O)C(F)C(Br)C(=O)OC (stereo unspecified)
stdout: inactive

stdin: What do you get for Cc1ccc2nc3sc(=O)sc3nc2c1 ?
stdout: inactive

stdin: What do you get for Cc1c([N+](=O)[O-])oc2ccc3ccccc3c12 ?
stdout: inactive

stdin: What do you get for c1cc2c(cc1C1OC[C@H]3[C@@H](c4ccc5c(c4)OCO5)OC[C@@H]13)OCO2 (stereo partly specified) ?
stdout: inactive

stdin: What do you get for O=C(/C=C(\c1ccccc1)N1CC1)c1ccccc1 ?
stdout: inactive

stdin: What do you get for CC1=C2C(=C[C@@](C)(CO)[C@@H]2O)C(=O)[C@](C)(O)C12CC2 ?
stdout: inactive

stdin: What do you get for COc1cc([C@@H]2c3cc4c(cc3C[C@@H]3COC(=O)C32)OCO4)cc(OC)c1O (stereo partly specified) ?
stdout: inactive

stdin: What do you get for CCC1(O)C(=O)OCc2c1cc1n(c2=O)Cc2cc3ccccc3nc2-1 (stereo unspecified) ?
stdout: inactive

stdin: What do you get for OC1(c2ccccc2)CC2CCC(C1)N2CCCC(O)(c1ccccc1)c1ccccc1 (stereo unspecified) ?
stdout: inactive

stdin: What do you get for CCOC(=O)C1=C(C(=O)OCC)C2(c3ccccc3)N(O1)c1ccccc1C2(C)C (stereo unspecified) ?
stdout: inactive

stdin: What do you get for O=S(=O)(O)c1ccc(Cl)cc1.[Cd] ?
stdout: inactive

stdin: What do you get for Cc1ccc2c(c1)C1(C)c3cc(C)ccc3SP1S2 (stereo unspecified) ?
stdout: inactive

stdin: What do you get for OC(c1ccc(Br)cc1)C(Cl)(Cl)Cl (stereo unspecified) ?
stdout: inactive

stdin: What do you get for COC(=O)C1=C(C(=O)OC)C2OC1c1cc3ccccc3cc12 ?
stdout: inactive

stdin: What do you get for O=C1C2CC(Cl)C(SSC3CC4C(=O)N(SC(Cl)(Cl)C(Cl)Cl)C(=O)C4CC3Cl)CC2C(=O)N1SC(Cl)(Cl)C(Cl)Cl (stereo unspecified) ?
stdout: active

stdin: What do you get for N#Cc1cc(N(CCCl)CCCl)c([N+](=O)[O-])cc1[N+](=O)[O-] ?
stdout: inactive

stdin: What do you get for [N-]=[N+]=C1C(Cl)=C(Cl)C(Cl)=C1Cl ?
stdout: inactive

stdin: What do you get for C[C@]12CC[C@H](O)CC1=CC[C@@H]1[C@@H]2CC[C@]2(C)C(=O)CC[C@@H]12 ?
stdout: inactive

stdin: What do you get for CC[C@@]1(O)C(=O)OCc2c1cc1n(c2=O)Cc2cc3ccccc3nc2-1 ?
stdout: inactive

stdin: What do you get for O=C(O)CCCc1cc(I)c(N(CCCl)CCCl)c(I)c1 ?
stdout: inactive

stdin: What do you get for Oc1cccnc1[Se] ?
stdout: inactive

stdin: What do you get for OCC(O)C(O)CO (stereo unspecified) (tested in a mixture with another compound) ?
stdout: inactive

stdin: What do you get for CCC1(O)C(=O)OCc2c1cc1n(c2=O)Cc2c-1nc1ccccc1c2OC (stereo unspecified) ?
stdout: inactive

stdin: What do you get for Nc1ccc(Cl)cc1C(=O)c1ccccc1 ?
stdout: inactive

stdin: What do you get for COc1ccc(/C=C(/C)[N+](=O)[O-])cc1 ?
stdout: inactive

stdin: What do you get for O=C(O)C1C2CCC(C2)C1c1ccccc1 (stereo unspecified) ?
stdout: inactive

stdin: What do you get for COc1cc2ccccc2c2cc([N+](=O)[O-])oc12 ?
stdout: active

stdin: What do you get for Cc1c(N)nc([C@H](CC(N)=O)NC[C@H](N)C(N)=O)nc1C(=O)N[C@H](C(=O)N[C@H](C)[C@@H](O)[C@H](C)C(=O)N[C@H](C(=O)NCCc1nc(-c2nc(C(=O)NCCC[S+](C)C)cs2)cs1)[C@@H](C)O)C(OC1OC(CO)C(O)C(O)C1OC1OC(CO)C(O)C(OC(N)=O)C1O)c1cnc[nH]1 (stereo partly specified) ?
stdout: inactive

stdin: What do you get for O=C1c2ccc3ccccc3c2CCC1N1CCCCC1 (stereo unspecified) ?
stdout: inactive

stdin: What do you get for O=C(O)C1C2c3ccccc3C(c3ccccc32)C1C(=O)O (stereo unspecified) ?
stdout: inactive

stdin: What do you get for CO[C@H](/C(C)=C/C=C/C(C)=C/c1coc(C)n1)[C@H](C)[C@H]1C[C@@H](O)[C@@]2(C)O[C@H]2/C=C/[C@@H](C)[C@@H]2C[C@@H](CC(=O)O2)C[C@H]2O[C@@H]2C(=O)O1 ?
stdout: inactive

stdin: What do you get for O=P(Oc1ccc(Cl)cc1)(Oc1ccc(Cl)cc1)N1CC1 ?
stdout: inactive

stdin: What do you get for O=C(O)C1C2C=CC(C2)C1c1ccccc1 (stereo unspecified) ?
stdout: inactive

stdin: What do you get for CCC1(OC(=O)CN)C(=O)OCc2c1cc1n(c2=O)Cc2cc3ccccc3nc2-1 (stereo unspecified) ?
stdout: inactive

stdin: What do you get for O=C1c2ccccc2C(=O)C(Cl)C1Cl (stereo unspecified) ?
stdout: inactive

stdin: What do you get for C/C(=N\O)c1ccc2ccc3ccccc3c2c1 ?
stdout: inactive

stdin: What do you get for O=[N+]([O-])c1ccc(C=Cc2ccccc2)cc1.[C-]#[O+].[C-]#[O+].[C-]#[O+].[Cr] ?
stdout: inactive

stdin: What do you get for CNC(=O)OCC1C2=C(C(=O)C(C)=C(N)C2=O)N2CC3C(N3C)C12OC (stereo unspecified) ?
stdout: inactive

stdin: What do you get for CC1CCC2(NC1)OC1CC3C4CCC5CC(OC6OC(CO)C(OC7OC(CO)C(O)C(OC8OCC(O)C(O)C8O)C7OC7OC(CO)C(O)C(O)C7O)C(O)C6O)CCC5(C)C4CCC3(C)C1C2C (stereo unspecified) ?
stdout: inactive

stdin: What do you get for CN(N=O)C(=O)NNC(=O)N(C)N=O ?
stdout: inactive

stdin: What do you get for CC[PH+](CC)CC.CC[PH+](CC)CC.[Au] ?
stdout: inactive

The reported measurements were obtained from PubChem BioAssay (NCI).
